# Tested on: M14 melanoma
# test-details: NCI-60 one-dose screen, 48 h (100 = growth as untreated, 0 = no growth, -100 = all killed)
# test-settings: 10 µM unless noted
This is part of a sample that, as a whole, favours compounds with a hit. Of some 83,000 tested, about 20% had one in any assay.

[
  {
    "compound": "Cc1ccc(NC2=C(Cl)C(=O)c3nc(C)ccc3C2=O)cc1",
    "test-target": "M14 melanoma",
    "growth [%]": 29.1
  },
  {
    "compound": "COc1cc(Nc2nc(NCCN)nc3cc[nH]c(=O)c23)cc(OC)c1",
    "test-target": "M14 melanoma",
    "growth [%]": 49.7
  },
  {
    "compound": "CN1C(=O)N(C)C2Nn3c(s/c(=C\\c4ccccc4)c3=O)=NC21 (configuration not stated)",
    "test-target": "M14 melanoma",
    "growth [%]": 97.8
  },
  {
    "compound": "CCCCCCn1c(-c2ccc(C(=O)O/N=C(\\N)c3ccc4c(c3)OCO4)cc2)nc(-c2ccccc2)c1-c1ccccc1",
    "test-target": "M14 melanoma",
    "growth [%]": 56.2
  },
  {
    "compound": "O=S(=O)(NCCCNc1cc(-c2c(-c3cccc(O)c3)nc3sccn23)ccn1)c1cccc2ccccc12",
    "test-target": "M14 melanoma",
    "growth [%]": 45.4
  },
  {
    "compound": "COc1ccc(-c2nc3sc(-c4ccccc4)cn3n2)cc1",
    "test-target": "M14 melanoma",
    "growth [%]": 28.4
  },
  {
    "compound": "O=c1ccc(N=Nc2ccccc2)ccc1Cl",
    "test-target": "M14 melanoma",
    "growth [%]": 46.6
  }
]
